Listed here are molecules together with their documented TGI.
Tested on: A549 NSCLC
Assay: NCI tumour cell line growth inhibition, 48 h

Here's what some known entries look like.
Request: Fill blank: measured TGI of the molecule CCN(CC)c1ccc(NC(C(=O)c2ccccc2)c2ccccc2)cc1 (centres undefined) is ____.
Result: 54 µM

Request: Fill blank: measured TGI of the molecule COc1ccc(C(=O)C2CC3(CCC2(O)c2ccc(OC)cc2)CC(=O)Nc2ccccc2C3=O)cc1 (centres undefined) is ____.
Result: > 100 µM

Request: Fill blank: measured TGI of the molecule [N-]=N[N+]#I1OC(C(F)(F)F)(C(F)(F)F)c2ccccc21 is ____.
Result: 39.2 µM

New cases:
Request: Fill blank: measured TGI of the molecule Cc1cc(-c2ccc(C(=O)C(Cl)(Cl)Cl)[nH]2)on1 is ____.
Result: > 100 µM

----------
Tested on: HCT-15 colon
Test: NCI tumour cell line growth inhibition, 48 h; in the data active = GI50 below about 0.43 µM; inactive = the rest
Give one outcome, nothing more. List: t = active, f = inactive

Request: Would you mind telling me which call this test gave COc1ccc(/C=C2/CN(C(=O)c3ccccc3F)C/C(=C\c3ccc(OC)cc3)C2=O)cc1 ?
Result: f

Request: Would you mind telling me which call this test gave COC1/C=C/O[C@@]2(C)Oc3c(C)c(O)c4c(O)c(cc(O)c4c3C2=O)NC(=O)/C(C)=C\C=C\[C@H](C)C(O)[C@@H](C)[C@@H](O)[C@@H](C)[C@H](OC(C)=O)[C@@H]1C (some centres undefined) ?
Result: f

New cases:
Request: Would you mind telling me which call this test gave C=C1CC2CC[C@@]34C[C@@H]5O[C@@H]6C(O[C@H]7CC[C@H](CC(=O)OC8[C@@H](C)C9OC%10C[C@]%11(C[C@@H]%12O[C@@]%13(C[C@@H](C)[C@@H]%12O%11)C[C@H](C)[C@@H]%11OC%12CC(C(O)CO)OC%12C[C@@H]%11O%13)OC%10CC9O[C@H]8C[C@H]8O[C@@H](CC[C@@H]1O2)C[C@@H](C)C8=C)O[C@@H]7[C@@H]6O3)C5O4 (some centres undefined) ?
Result: t

Request: Would you mind telling me which call this test gave CC1(C)CCC(S(=O)(=O)c2ccc3c(c2)/C(=N\O)c2cc(S(=O)(=O)N4CCC(O)(c5cccc(C(F)(F)F)c5)CC4)ccc2-3)CC1 ?
Result: t

Request: Would you mind telling me which call this test gave COc1ccc(C2C3=C(NC(=O)C2C#N)c2ccc4ccccc4c2OCC3)cc1 (centres undefined) ?
Result: f

Request: Would you mind telling me which call this test gave CS(=O)(=O)c1nccc(-c2c(-c3cccc(OCc4ccc(F)cc4)c3)nc3sccn23)n1 ?
Result: f

Request: Would you mind telling me which call this test gave CN(C(=O)C1CCCCC1)c1ccccc1I(=O)=O ?
Result: f

Request: Would you mind telling me which call this test gave COC[C@H]1C(=O)NCC(=O)N2NCCC[C@H]2C(=O)N(O)[C@H](C)C(=O)O[C@@H](C(C)C)[C@H](NC(=O)[C@](C)(O)[C@]2(O)CC[C@@H](CC(C)C)[C@H](C)O2)C(=O)N2NCCC[C@@H]2C(=O)N1O ?
Result: t

Request: Would you mind telling me which call this test gave O=C(NCc1cn(Cc2cccc(Oc3ccccc3)c2)nn1)c1cccnc1Nc1ccccc1 ?
Result: f

----------
Tested on: COLO 205 colon
Assay: NCI tumour cell line growth inhibition, 48 h
PARAMETER: GI50

Here's what some known entries look like.
Request: Fill blank: measured GI50 of the compound COC1=CC(c2ccc[nH]2)=N/C1=C\c1[nH]c(C)c(C(=O)CCC(=O)Oc2ccc3c(c2)CCC2C3CC[C@]3(C)C(=O)CC[C@@H]23)c1C (some centres undefined) is ____.
Result: 21.5 µM

Request: Fill blank: measured GI50 of the compound O=S(=O)(Nc1ccc(-c2nc(-c3cccc(OCCN4CCOCC4)c3)c(-c3ccnc(Br)c3)[nH]2)cc1)c1ccccc1 is ____.
Result: 3.54 µM

Request: Fill blank: measured GI50 of the compound COc1ccc2c(c1)O/C(=C\c1cccc(OCC(=O)Nc3nc4ccccc4s3)c1)C2=O is ____.
Result: > 100 µM

Moving on to the next compound.
Request: Fill blank: measured GI50 of the compound CC(=O)[CH-]C(=O)c1ccccc1.CC(=O)[CH-]C(=O)c1ccccc1.[Nd+3].[OH-].[OH3+] is ____.
Result: > 100 µM

----------
Tested on: BT-549 breast
Experiment: NCI tumour cell line growth inhibition, 48 h
PARAMETER: TGI (µM)
Enter your answer as a number in µM; do not include the unit.

Request: Fill blank: measured TGI of the compound COc1ccc(C2C3=C(NC(=O)C2C#N)c2ccc4ccccc4c2OCC3)cc1 (configuration not stated) is ____.
Result: 60.6

Request: Fill blank: measured TGI of the compound COCCNCC(O)Cn1c2ccc(Cl)cc2c2cc(Cl)ccc21 (configuration not stated) is ____.
Result: 4.36

New cases:
Request: Fill blank: measured TGI of the compound COc1ccc2c(c1)O/C(=C\c1cccc(OCC(=O)Nc3nc4ccccc4s3)c1)C2=O is ____.
Result: 97.6

Request: Fill blank: measured TGI of the compound CCC(=O)Sc1ccccc1C(=O)Nc1ccc(Cl)cc1 is ____.
Result: 9.89

Request: Fill blank: measured TGI of the compound O=C(Cc1ccc(Cl)c(Cl)c1)NCCCN1CCN(CCCN2CCCCC2)CC1 is ____.
Result: 57.4

----------
System: SK-MEL-2 melanoma
Assay: NCI tumour cell line growth inhibition, 48 h
Listed here are molecules together with their documented GI50.

Here's what some known entries look like.
Request: Fill blank: measured GI50 of the molecule OCC1SC(n2cnc3cncnc32)C(O)C1O (stereo not given) is ____.
Result: > 100 µM

Request: Fill blank: measured GI50 of the molecule O=C(Cn1ccnc1[N+](=O)[O-])N(CCO)CCO is ____.
Result: > 1250 µM

Request: Fill blank: measured GI50 of the molecule CCCOC(=O)N[C@H]1CCc2c(Br)c(OC)c(OC)c(OC)c2-c2ccc(SC)c(=O)cc21 is ____.
Result: 2.44 µM

New cases:
Request: Fill blank: measured GI50 of the molecule O=C(NCc1cn(Cc2cccc(Oc3ccccc3)c2)nn1)c1cccnc1Nc1ccccc1 is ____.
Result: 6.05 µM

Request: Fill blank: measured GI50 of the molecule COc1ccc(C(CC(=O)c2ccccc2)C(C(=O)c2ccccc2)C(c2ccc(OC)cc2)C2C(=O)NC(=O)NC2=O)cc1 (stereo not given) is ____.
Result: 38.5 µM

Request: Fill blank: measured GI50 of the molecule COC1=CC(c2ccc[nH]2)=N/C1=C\c1[nH]c(C)c(C(=O)CCC(=O)Oc2ccc3c(c2)CCC2C3CC[C@]3(C)C(=O)CC[C@@H]23)c1C (stereo not given in full) is ____.
Result: 15.6 µM

Request: Fill blank: measured GI50 of the molecule CCN(CC)c1ccc(NC(C(=O)c2ccccc2)c2ccccc2)cc1 (stereo not given) is ____.
Result: 3.44 µM

Request: Fill blank: measured GI50 of the molecule CS(=O)(=O)c1nccc(-c2c(-c3cccc(OCc4ccc(F)cc4)c3)nc3sccn23)n1 is ____.
Result: > 100 µM

Request: Fill blank: measured GI50 of the molecule O=C(CC12CC3CC(CC(C3)C1)C2)NCCOCCOCCNC(=O)c1cc2c(o1)C(=O)c1ccccc1C2=O is ____.
Result: 1.6 µM

Request: Fill blank: measured GI50 of the molecule O=C1Nc2ccc(F)c3c(OCCO)cc(-c4ccc[nH]4)c1c23 is ____.
Result: 1.4 µM

----------
Test system: HOP-92 NSCLC
Test: NCI tumour cell line growth inhibition, 48 h
Listed here are compounds together with their documented TGI.

Request: Fill blank: measured TGI of the compound O=C(NC1CCCCC1)c1c(O)[nH]c(=S)[nH]c1=O is ____.
Result: > 100 µM

Moving on to the next compound.
Request: Fill blank: measured TGI of the compound COC(=O)[C@]1(C)CCCn2c(=O)n(-c3ccccc3)c(=O)n21 is ____.
Result: > 100 µM

----------
Tested on: DMS 114 small cell lung
Assay: NCI tumour cell line growth inhibition, 48 h
Listed here are compounds together with their documented TGI.

Here's what some known entries look like.
Request: Fill blank: measured TGI of the compound CCCCOC1CC2(c3ccc(OC)cc3)C(=O)c3ccccc3N2O1 (stereo unspecified) is ____.
Result: 99.5 µM

Request: Fill blank: measured TGI of the compound C=CCN1C(=O)CS/C1=N\NC(=O)c1c(C)nc2sccn12 is ____.
Result: > 100 µM

New cases:
Request: Fill blank: measured TGI of the compound CN(C)CCNC(=O)c1ccc2ccc3cccnc3c2n1 is ____.
Result: 25.6 µM

Request: Fill blank: measured TGI of the compound c1cnc2c(c1)-n1cccc1C1(CCOCC1)NN2 is ____.
Result: > 100 µM

Request: Fill blank: measured TGI of the compound Cc1ccc(OP2(=O)Oc3ccc4ccccc4c3CN2c2ccc(Cl)cc2)cc1C (stereo unspecified) is ____.
Result: > 100 µM

Request: Fill blank: measured TGI of the compound O=C(NC1CCCCC1)c1c(O)[nH]c(=S)[nH]c1=O is ____.
Result: > 100 µM

// data source = PubChem BioAssay (NCI)
